- System name: PI3Kα (p110α/p85α) (Homo sapiens, UniProt P42336)
- Construct: purchased Invitrogen
- Sequence (P42336 whole entry): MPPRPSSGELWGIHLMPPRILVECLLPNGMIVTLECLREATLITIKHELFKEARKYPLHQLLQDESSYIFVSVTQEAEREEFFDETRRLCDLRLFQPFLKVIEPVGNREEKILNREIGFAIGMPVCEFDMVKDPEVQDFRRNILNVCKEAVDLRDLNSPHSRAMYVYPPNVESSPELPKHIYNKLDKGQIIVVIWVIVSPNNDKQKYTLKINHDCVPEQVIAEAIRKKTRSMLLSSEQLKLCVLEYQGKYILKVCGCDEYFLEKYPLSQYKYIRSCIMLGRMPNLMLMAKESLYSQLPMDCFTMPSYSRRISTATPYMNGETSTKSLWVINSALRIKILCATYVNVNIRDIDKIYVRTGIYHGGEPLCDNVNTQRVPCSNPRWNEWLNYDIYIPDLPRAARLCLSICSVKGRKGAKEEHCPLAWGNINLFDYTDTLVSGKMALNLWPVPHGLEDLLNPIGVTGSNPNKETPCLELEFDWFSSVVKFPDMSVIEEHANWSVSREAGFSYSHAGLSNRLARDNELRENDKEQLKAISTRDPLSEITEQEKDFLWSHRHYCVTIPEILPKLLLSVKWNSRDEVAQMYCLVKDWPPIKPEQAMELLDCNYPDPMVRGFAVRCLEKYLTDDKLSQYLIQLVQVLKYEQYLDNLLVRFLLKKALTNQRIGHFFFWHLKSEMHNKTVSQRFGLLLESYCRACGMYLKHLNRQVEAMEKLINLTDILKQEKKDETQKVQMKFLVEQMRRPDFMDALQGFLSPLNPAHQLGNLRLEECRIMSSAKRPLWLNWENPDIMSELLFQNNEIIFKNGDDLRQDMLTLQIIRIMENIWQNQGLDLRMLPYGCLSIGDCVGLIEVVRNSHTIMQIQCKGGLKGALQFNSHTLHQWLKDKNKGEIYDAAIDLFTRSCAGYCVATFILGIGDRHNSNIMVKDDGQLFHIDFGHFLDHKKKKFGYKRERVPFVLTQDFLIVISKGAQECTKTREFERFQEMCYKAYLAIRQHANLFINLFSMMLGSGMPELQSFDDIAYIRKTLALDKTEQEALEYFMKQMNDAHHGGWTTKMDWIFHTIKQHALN
- Sequence (P27986 whole entry partner): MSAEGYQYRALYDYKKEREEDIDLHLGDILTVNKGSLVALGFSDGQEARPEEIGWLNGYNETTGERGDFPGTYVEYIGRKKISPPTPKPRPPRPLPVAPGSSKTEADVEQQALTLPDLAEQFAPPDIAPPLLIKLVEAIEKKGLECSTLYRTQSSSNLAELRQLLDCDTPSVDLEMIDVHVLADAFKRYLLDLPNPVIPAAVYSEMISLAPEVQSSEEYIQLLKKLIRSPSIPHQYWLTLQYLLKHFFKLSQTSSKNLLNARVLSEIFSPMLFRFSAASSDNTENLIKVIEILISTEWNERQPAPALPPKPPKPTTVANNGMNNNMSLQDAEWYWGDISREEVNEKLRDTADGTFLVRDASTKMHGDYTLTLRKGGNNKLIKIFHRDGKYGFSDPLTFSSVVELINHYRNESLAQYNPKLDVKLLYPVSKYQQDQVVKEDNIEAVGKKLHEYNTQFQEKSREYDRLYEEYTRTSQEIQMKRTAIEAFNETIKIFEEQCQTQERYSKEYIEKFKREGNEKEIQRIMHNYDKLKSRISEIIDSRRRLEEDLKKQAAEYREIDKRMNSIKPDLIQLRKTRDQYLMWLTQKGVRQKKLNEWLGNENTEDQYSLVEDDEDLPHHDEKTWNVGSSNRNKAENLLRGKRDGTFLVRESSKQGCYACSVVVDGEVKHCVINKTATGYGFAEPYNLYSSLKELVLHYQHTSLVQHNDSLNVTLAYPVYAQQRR
- Protocol notes: PI3K biochemical enzyme assay (Adapta universal kinase assay), p110 alpha/p85 alpha
- Measurement parameters: 10 μM; read-out: PI3Kα % inhib
Classification scheme (inhibition at 10 µM): bottom bin (below 50%), middle bin (50% to below 80%), top bin (80% or more)

Task item: Note: place this compound into its band. Item: CC(Nc1ncnc2[nH]cnc12)c1nc2ccccc2nc1-c1cc(F)cc(F)c1 (stereo not drawn) [Compound Q2]
Reply: bottom bin

Task item: # iterate: CCC(Nc1ncnc2[nH]cnc12)c1nc2ccccc2nc1-c1ccccc1 (stereo not drawn) [Compound Q12]
Reply: middle bin

Task item: What do we get for CCC(Nc1ncnc2[nH]cnc12)c1nc2cccc(F)c2nc1-c1ccccc1 (stereo not drawn) [Compound Q9] ?
Reply: middle bin

Task item: Quick one: Cc1cccc2nc(C(C)Nc3ncnc4[nH]cnc34)c(-c3ccc(F)cc3)nc12 (stereo not drawn) [Compound Q7]
Reply: top bin

Task item: Also check Cc1ccc(-c2nc3ccccc3nc2C(C)Nc2ncnc3[nH]cnc23)cc1 (stereo not drawn) [Compound Q11]
Reply: middle bin

Task item: Also need CC(Nc1ncnc2[nH]cnc12)c1nc2ccccc2nc1-c1ccccc1 (stereo not drawn) [Compound Q1] , thanks.
Reply: top bin

Task item: Another compound to check: Cc1cccc(-c2nc3ccccc3nc2C(C)Nc2ncnc3[nH]cnc23)c1 (stereo not drawn) [Compound Q3]
Reply: middle bin

Task item: Check CC(Nc1ncnc2[nH]cnc12)c1nc2ccccc2nc1-c1c(F)cccc1F (stereo not drawn) [Compound Q10] too.
Reply: bottom bin
